System: Rattus norvegicus
Test: […] inhibition of sorbitol accumulation in rat sciatic nerves at 10e-5 M concentration
Assay type: functional, Sciatic nerve
Exercise: state measured Inhibition for each of the compounds provided.
Please answer using a numeric value trailed by its unit.

Example entries and their recorded answers appear below.
| Smiles String | Measured On | Inhibition |
| --- | --- | --- |
| COC(=O)N(CC(=O)O)C(=O)c1cccc2c(C(F)(F)F)c(OC)ccc12 | Rattus norvegicus | 58% |
| COc1ccc2c(C(=O)N(CC(=O)O)C(=O)N(C)C)cccc2c1C(F)(F)F | Rattus norvegicus | 34% |
| CCCOC(=O)N(CC(=O)O)C(=O)c1cccc2c(C(F)(F)F)c(OC)ccc12 | Rattus norvegicus | 62% |

Please state, for each entry, its recorded Inhibition.
1. COc1ccc2c(C(=O)N(CC(=O)O)C(=O)c3ccccc3)cccc2c1C(F)(F)F
2. COc1ccc2c(C(=O)N(C)CC(=O)O)cccc2c1C(F)(F)F

31%
74%

* * *

Molecular target: Aldo-keto reductase family 1 member B1 (Bos taurus)
Assay: Inhibition of aldose reductase in partially purified bovine lens preparation at 10e-6 M.
Exercise: state measured inhibition for each of the compounds provided.
Answers are plain numbers, in %.

Please state, for each entry, its recorded inhibition.
1. COc1ccc2c(C(=O)N(CC(=O)O)C(=O)OCc3ccccc3)cccc2c1C(F)(F)F
2. CSc1ccc2c(C(=S)N(C)CC(=O)O)cccc2c1C(F)(F)F
3. CCOC(=O)N(CC(=O)O)C(=O)c1cccc2c(C(F)(F)F)c(OC)ccc12
4. CSc1ccc2c(C(=O)N(C)CC(=O)O)cccc2c1C(F)(F)F

[89, 95, 98, 85]

Fill in inhibition for record COc1ccc2c(/C(=N/S(=O)(=O)c3ccc(Br)cc3)N(C)CC(=O)O)cccc2c1C(F)(F)F
53

* * *

Biological target: Aldo-keto reductase family 1 member B1 (Bos taurus) (UniProt P16116)
Assay: Inhibition of aldose reductase in partially purified bovine lens preparation at 10e-6 M.
Decide using inhibition: a value greater than or equal to 90% is true, a smaller one is false.

These solved cases illustrate the format of a correct answer.
| Smiles String | Label |
| --- | --- |
| COc1ccc2c(/C(=N/C#N)N(C)CC(=O)O)cccc2c1C(F)(F)F | false |
| COc1ccc2c(C(=O)N(CC(=O)O)C(=O)OCC(C)(C)C)cccc2c1C(F)(F)F | false |
| COc1ccc2c(C(=O)N(CC(=O)O)C(=O)N(C)C)cccc2c1C(F)(F)F | false |
| COc1ccc2c(C(=O)N(C)CC(=O)O)cccc2c1C(F)(F)F | false |

Please tell me: is the compound COC(=O)N(CC(=O)O)C(=O)c1cccc2c(C(F)(F)F)c(OC)ccc12 at or over 90% in terms of inhibition?
true

Please tell me: is the compound O=C1NC(=O)[C@@]2(CCOc3ccc(F)cc32)N1 at or over 90% in terms of inhibition?
false

Please tell me: is the compound COc1ccc2c(C(=O)N(CC(=O)O)C(=O)c3ccccc3)cccc2c1C(F)(F)F at or over 90% in terms of inhibition?
false

Please tell me: is the compound COc1ccc2c(C(=O)N(C=O)CC(=O)O)cccc2c1C(F)(F)F at or over 90% in terms of inhibition?
true

* * *

Test system: Rattus norvegicus
Assay: […] inhibition of sorbitol accumulation in rat sciatic nerves at 10e-5 M concentration
Type: functional, Sciatic nerve
Measured Quantity: Inhibition (%)
One number for each entry, in %.

| Smiles String | Measured Quantity | Unit Annotation | Experimental Result |
| --- | --- | --- | --- |
| CCOC(=O)N(CC(=O)O)C(=O)c1cccc2c(C(F)(F)F)c(OC)ccc12 | Inhibition | % | 88 |
| COc1ccc2c(C(=O)N(CC(=O)O)C(=O)OCC(C)(C)C)cccc2c1C(F)(F)F | Inhibition | % | 37 |
| COc1ccc2c(C(=O)N(CC(=O)O)C(=O)OCc3ccccc3)cccc2c1C(F)(F)F | Inhibition | % | 28 |
| COC(=O)N(CC(=O)O)C(=S)c1cccc2c(C(F)(F)F)c(OC)ccc12 | Inhibition | % | 61 |
| CSc1ccc2c(C(=S)N(C)CC(=O)O)cccc2c1C(F)(F)F | Inhibition | % | 93 |
| CSc1ccc2c(C(=O)N(C)CC(=O)O)cccc2c1C(F)(F)F | Inhibition | % | 73 |
| COc1ccc2c(C(=O)N(CC(=O)O)C(C)=O)cccc2c1C(F)(F)F | Inhibition | % | 62 |
| COc1ccc2c(C(=S)N(C)CC(=O)O)cccc2c1C(F)(F)F | Inhibition | % | 82 |

Please state, for each entry, its recorded Inhibition.
1. O=C1NC(=O)[C@@]2(CCOc3ccc(F)cc32)N1
2. COc1ccc2c(C(=O)N(C=O)CC(=O)O)cccc2c1C(F)(F)F

[96, 65]

* * *

System: Rattus norvegicus
Assay: In vivo inhibition of sorbitol accumulation in rat sciatic nerves at 10e-6 M concentration
Format: functional, Sciatic nerve
Decide using Inhibition: a value greater than or equal to 40% is fulfilled, a smaller one is not fulfilled.

These solved cases illustrate the format of a correct answer.
| Smiles String | Label |
| --- | --- |
| COC(=O)N(CC(=O)O)C(=S)c1cccc2c(C(F)(F)F)c(OC)ccc12 | not fulfilled |
| COc1ccc2c(C(=O)N(C)CC(=O)O)cccc2c1C(F)(F)F | not fulfilled |
| O=C1NC(=O)[C@@]2(CCOc3ccc(F)cc32)N1 | not fulfilled |
| CCOC(=O)N(CC(=O)O)C(=O)c1cccc2c(C(F)(F)F)c(OC)ccc12 | fulfilled |

Okay, now this molecule:
Please tell me: is the molecule COc1ccc2c(C(=O)N(CC(=O)O)C(=O)OCC(C)(C)C)cccc2c1C(F)(F)F at or over 40% in terms of Inhibition?
not fulfilled

* * *

Target: Aldo-keto reductase family 1 member B1 (Bos taurus) (UniProt P16116)
Assay: Inhibition of aldose reductase in partially purified bovine lens preparation at 10e-7 M concentration
Exercise: state measured inhibition for each of the molecules provided.
Numbers only, in %.

Example entries and their recorded answers appear below.
| Smiles String | Measured On | inhibition (%) |
| --- | --- | --- |
| COc1ccc2c(C(=O)N(CC(=O)O)C(=O)c3ccccc3)cccc2c1C(F)(F)F | Aldo-keto reductase family 1 member B1 (Bos taurus) (UniProt P16116) | 15 |
| COc1ccc2c(C(=O)N(CC(=O)O)C(=O)OCC(C)(C)C)cccc2c1C(F)(F)F | Aldo-keto reductase family 1 member B1 (Bos taurus) (UniProt P16116) | 18 |
| CSc1ccc2c(C(=S)N(C)CC(=O)O)cccc2c1C(F)(F)F | Aldo-keto reductase family 1 member B1 (Bos taurus) (UniProt P16116) | 71 |
| COc1ccc2c(/C(=N/S(=O)(=O)c3ccc(Br)cc3)N(C)CC(=O)O)cccc2c1C(F)(F)F | Aldo-keto reductase family 1 member B1 (Bos taurus) (UniProt P16116) | 5 |
| CCOC(=O)N(CC(=O)O)C(=O)c1cccc2c(C(F)(F)F)c(OC)ccc12 | Aldo-keto reductase family 1 member B1 (Bos taurus) (UniProt P16116) | 81 |

Please state, for each entry, its recorded inhibition.
1. CCCOC(=O)N(CC(=O)O)C(=O)c1cccc2c(C(F)(F)F)c(OC)ccc12
2. COC(=O)N(CC(=O)O)C(=O)c1cccc2c(C(F)(F)F)c(OC)ccc12
3. COc1ccc2c(C(=O)N(C)CC(=O)O)cccc2c1C(F)(F)F

[81, 82, 57]

Please state, for each entry, its recorded inhibition.
1. COc1ccc2c(C(=O)N(C=O)CC(=O)O)cccc2c1C(F)(F)F
2. COc1ccc2c(/C(=N/C#N)N(C)CC(=O)O)cccc2c1C(F)(F)F

1. 89
2. 80

* * *

Target: Aldo-keto reductase family 1 member B1 (Bos taurus)
Test: Inhibition of aldose reductase in partially purified bovine lens preparation at 10e-7 M concentration
Measured Quantity: inhibition (%)
One number for each entry, in %.

| Smiles String | Measured Quantity | Experimental Result |
| --- | --- | --- |
| O=C1NC(=O)[C@@]2(CCOc3ccc(F)cc32)N1 | inhibition | 10 |

Please state, for each entry, its recorded inhibition.
1. COc1ccc2c(C(=O)N(CC(=O)O)C(=O)OC(C)C)cccc2c1C(F)(F)F
2. COc1ccc2c(C(=O)N(CC(=O)O)C(C)=O)cccc2c1C(F)(F)F
3. CSc1ccc2c(C(=O)N(C)CC(=O)O)cccc2c1C(F)(F)F

35
61
51

* * *

Exercise: state measured Inhibition for each of the compounds provided.
System: Rattus norvegicus
Assay: […] inhibition of sorbitol accumulation in rat sciatic nerves at 5*10e-6 M concentration
Type: functional, Sciatic nerve
Conditions: in the assay text read “In vitro” for “In vivo”
Give bare numbers, in %.

Example entries and their recorded answers appear below.
| Smiles String | Measured On | Unit Annotation | Experimental Result |
| --- | --- | --- | --- |
| COc1ccc2c(/C(=N/C#N)N(C)CC(=O)O)cccc2c1C(F)(F)F | Rattus norvegicus | % | 70 |
| COc1ccc2c(/C(=N/S(=O)(=O)C(F)(F)F)N(C)CC(=O)O)cccc2c1C(F)(F)F | Rattus norvegicus | % | 36 |
| O=C1NC(=O)[C@@]2(CCOc3ccc(F)cc32)N1 | Rattus norvegicus | % | 74 |

Attention now shifts to the item below.
Fill in Inhibition for record COc1ccc2c(C(=S)N(C)CC(=O)O)cccc2c1C(F)(F)F
76
